Where do the numbers come from? From ChEMBL document CHEMBL5356971.

test: Metabolic stability in mouse kidney assessed as parent compound remaining measured after 1 hrs by UPLC-MS analysis; assay type: ADME, tissue-based; settings: read-out: Stability
readout-name: remaining at 1 h
Remember to put the unit after the number in your answer.

Field: example entries. Status: answers known.
structure-smiles-string	readout-name	result
CO[C@@H](CNC(=O)[C@H](NC(=O)[C@H](O)[C@H](C)O)[C@H](O)c1cncn1C)[C@H](O)[C@H](O)C(=O)N(C)[C@@H](Cc1ccc(F)cc1)C(=O)NCC(=O)N[C@H](C(=O)N[C@@H](CO)C(=O)N[C@H](C(=O)N[C@H](C(=O)N[C@@H](CCC(=O)NCc1cc(=O)c(O)cn1O)C(=O)NCCN)C(C)(C)C)C(C)(C)O)C(C)(C)O	remaining at 1 h	61%
CO[C@@H](CNC(=O)[C@H](NC(=O)[C@H](O)[C@H](C)O)[C@H](O)c1cncn1C)[C@H](O)[C@H](O)C(=O)N(C)[C@@H](Cc1ccccc1)C(=O)NCC(=O)N[C@H](C(=O)N[C@@H](CO)C(=O)N[C@H](C(=O)N[C@H](C(=O)N[C@@H](CO)C(=O)N[C@H](CCC(=O)NCc1cc(=O)c(O)cn1O)C(=O)O)C(C)(C)C)C(C)(C)O)C(C)(C)O	remaining at 1 h	100%

Now for a further molecule.
Task item: Dear colleague, please send me the reported remaining at 1 h for `CO[C@@H](CNC(=O)[C@H](NC(=O)[C@H](O)[C@H](C)O)[C@H](O)c1cncn1C)[C@H](O)[C@H](O)C(=O)N(C)[C@@H](Cc1ccccc1)C(=O)NCC(=O)N[C@H](C(=O)N[C@@H](CO)C(=O)N[C@H](C(=O)N[C@H](C(=O)N[C@@H](CC(=O)O)C(=O)N1CCC[C@H]1C(=O)NCc1cc(=O)c(O)cn1O)C(C)(C)C)C(C)(C)O)C(C)(C)O` when you can.
Reply: 103%

====

assay: Metabolic stability in mouse lung assessed as parent compound remaining measured after 4 hrs by UPLC-MS analysis; format: ADME, tissue-based; conditions: mouse lung, read-out: Stability
Numbered stars: 1 amine (or outer) side, 2 acyl side, 3 side chain; on linkers, the order of the positions; unused ones are H or OH. Square brackets hold non-standard residues; d marks the D form. Peptide text beside a SMILES is read from it. * marks the point of attachment. Ava(2S,3R-(OH)2,4S-OMe) = CO[C@@H](CN[*:1])[C@H](O)[C@H](O)C(=O)[*:2]; dHis(βS-OH,π-Me) = Cn1cncc1[C@@H](O)[C@@H](N)C(=O)O; Butanoyl(2R-OH,3S-OH) = C[C@H](O)[C@@H](O)C(=O)*; Val(3-OH) = CC(C)(O)[C@H](N)C(=O)O; NMeF = CN[C@@H](Cc1ccccc1)C(=O)O
Decision: remaining at 4 h beneath 80% gives Condition met; remaining at 4 h meeting or exceeding 80% gives Condition not met.

Example results:
compound	category
CO[C@@H](CNC(=O)[C@H](NC(=O)[C@H](O)[C@H](C)O)[C@H](O)c1cncn1C)[C@H](O)[C@H](O)C(=O)N(C)[C@@H](Cc1ccccc1)C(=O)NCC(=O)N[C@H](C(=O)N[C@@H](CO)C(=O)N[C@H](C(=O)N[C@@H](CC(C)C)C(=O)N[C@@H](CO)C(=O)N[C@@H](CCC(=O)NCc1cc(=O)c(O)cn1O)C(=O)O)C(C)(C)O)C(C)(C)O	Condition met
CO[C@@H](CNC(=O)[C@H](NC(=O)[C@H](O)[C@H](C)O)[C@H](O)c1cncn1C)[C@H](O)[C@H](O)C(=O)N(C)[C@@H](Cc1ccccc1)C(=O)NCC(=O)N[C@H](C(=O)N[C@@H](CO)C(=O)N[C@H](C(=O)N[C@H](C(=O)N[C@@H](CCC(=O)NCc1cc(=O)c(O)cn1O)C(=O)O)C(C)(C)C)C(C)(C)O)C(C)(C)O	Condition not met
CO[C@@H](CNC(=O)[C@H](NC(=O)[C@H](O)[C@H](C)O)[C@H](O)c1cncn1C)[C@H](O)[C@H](O)C(=O)N(C)[C@@H](Cc1ccccc1)C(=O)NCC(=O)N[C@H](C(=O)N[C@@H](CO)C(=O)N[C@H](C(=O)N[C@H](C(=O)N[C@@H](CO)C(=O)O)C(C)(C)C)C(C)(C)O)C(C)(C)O	Condition not met
CO[C@@H](CNC(=O)[C@H](NC(=O)[C@H](O)[C@H](C)O)[C@H](O)c1cncn1C)[C@H](O)[C@H](O)C(=O)N(C)[C@@H](Cc1ccc(F)cc1)C(=O)NCC(=O)N[C@H](C(=O)N[C@@H](CO)C(=O)N[C@H](C(=O)N[C@H](C(=O)N[C@@H](CCC(=O)NCc1cc(=O)c(O)cn1O)C(=O)NCCN)C(C)(C)C)C(C)(C)O)C(C)(C)O	Condition met
CO[C@@H](CNC(=O)[C@H](NC(=O)[C@H](O)[C@H](C)O)[C@H](O)c1cncn1C)[C@H](O)[C@H](O)C(=O)N(C)[C@@H](Cc1ccccc1)C(=O)NCC(=O)N[C@H](C(=O)N[C@@H](CO)C(=O)N[C@H](C(=O)N[C@@H](CC(C)C)C(=O)N[C@@H](CO)C(=O)O)C(C)(C)O)C(C)(C)O ({Butanoyl(2R-OH,3S-OH)}-[dHis(βS-OH,π-Me)][Ava(2S,3R-(OH)2,4S-OMe)][NMeF]G[Val(3-OH)]S[Val(3-OH)]LS-OH)	Condition met

Task item: Report whether reported remaining at 4 h is lower than 80% (strictly) for `CO[C@@H](CNC(=O)[C@H](NC(=O)[C@H](O)[C@H](C)O)[C@H](O)c1cncn1C)[C@H](O)[C@H](O)C(=O)N(C)[C@@H](Cc1ccc(F)cc1)C(=O)NCC(=O)N[C@H](C(=O)N[C@@H](CO)C(=O)N[C@H](C(=O)N[C@H](C(=O)N[C@@H](CO)C(=O)O)C(C)(C)C)C(C)(C)O)C(C)(C)O`
Reply: Condition not met

Task item: Say whether its remaining at 4 h is strictly beneath 80%. Entry: `CC[C@H](C)[C@H](NC(=O)[C@@H](NC(=O)[C@H](CO)NC(=O)[C@@H](NC(=O)CNC(=O)[C@H](Cc1ccccc1)N(C)C(=O)[C@@H](O)[C@@H](O)[C@H](CNC(=O)[C@H](NC(=O)[C@H](O)[C@H](C)O)[C@H](O)c1cncn1C)OC)C(C)(C)O)C(C)(C)O)C(=O)N[C@@H](CO)C(=O)O`
Reply: Condition met

Task item: Here's an entry: `CO[C@@H](CNC(=O)[C@H](NC(=O)[C@H](O)[C@H](C)O)[C@H](O)c1cncn1C)[C@H](O)[C@H](O)C(=O)N(C)[C@@H](Cc1ccccc1)C(=O)NCC(=O)N[C@H](C(=O)N[C@@H](CO)C(=O)N[C@H](C(=O)N[C@H](C(=O)N[C@@H](CO)C(=O)N[C@@H](CN)C(=O)NCc1cc(=O)c(O)cn1O)C(C)(C)C)C(C)(C)O)C(C)(C)O` . Is its remaining at 4 h below 80%?
Reply: Condition met

Task item: is_below(remaining at 4 h, 80%) for `CO[C@@H](CNC(=O)[C@H](NC(=O)[C@H](O)[C@H](C)O)[C@H](O)c1cncn1C)[C@H](O)[C@H](O)C(=O)N(C)[C@@H](Cc1ccccc1)C(=O)NCC(=O)N[C@H](C(=O)N[C@@H](CO)C(=O)N[C@H](C(=O)N[C@H](C(=O)N[C@@H](CO)C(=O)N[C@@H](CCC(=O)NCc1cc(=O)c(O)cn1O)C(=O)O)C(C)(C)C)C(C)(C)O)C(C)(C)O` ?
Reply: Condition not met

Task item: Criterion: remaining at 4 h strictly below 80%. Is it met by `CO[C@@H](CNC(=O)[C@H](NC(=O)[C@H](O)[C@H](C)O)[C@H](O)c1cncn1C)[C@H](O)[C@H](O)C(=O)N(C)[C@@H](Cc1ccccc1)C(=O)N[C@@H](C)C(=O)N[C@H](C(=O)N[C@@H](CO)C(=O)N[C@H](C(=O)N[C@H](C(=O)N[C@@H](CO)C(=O)NCc1cc(=O)c(O)cn1O)C(C)(C)C)C(C)(C)O)C(C)(C)O` ?
Reply: Condition not met

Task item: Given `CC[C@H](C)[C@H](NC(=O)[C@@H](NC(=O)[C@H](CO)NC(=O)[C@@H](NC(=O)CNC(=O)[C@H](Cc1ccccc1)N(C)C(=O)[C@@H](O)[C@@H](O)[C@H](CNC(=O)[C@H](NC(=O)[C@H](O)[C@H](C)O)[C@H](O)c1cncn1C)OC)C(C)(C)O)C(C)(C)O)C(=O)N[C@@H](CO)C(=O)N[C@@H](CCC(=O)NCc1cc(=O)c(O)cn1O)C(=O)O` , is recorded remaining at 4 h strictly lower than 80%?
Reply: Condition met

Task item: Problem: For the compound `CO[C@@H](CNC(=O)[C@H](NC(=O)[C@H](O)[C@H](C)O)[C@H](O)c1cncn1C)[C@H](O)[C@H](O)C(=O)N(C)[C@@H](Cc1ccc(F)cc1)C(=O)NCC(=O)N[C@H](C(=O)N[C@@H](CO)C(=O)N[C@H](C(=O)N[C@H](C(=O)N[C@@H](CO)C(=O)NCc1ccc(O)c(O)c1)C(C)(C)C)C(C)(C)O)C(C)(C)O` , is remaining at 4 h under 80%?
Reply: Condition met
